# experiment: Selectivity index, ratio of IC50 for mouse L1210 cells to IC50 for Trypanosoma lewisi
# Type: toxicity, cell-based
# assay-conditions: L1210 cells versus Trypanosoma lewisi, read-out: Ratio IC50
metric: selectivity ratio
Kindly provide the number alone.

> print(dat)
                                   compound             metric  recorded.measurement
1  COc1ccc(C2C=C(c3cc(OC)c(OC)c(OC)c3)NC(=S)N2)cc1[N+](=O)[O-] (configuration not stated)  selectivity ratio                     2

# selectivity ratio lookup, item COc1cc(C2=CC(c3ccc([N+](=O)[O-])cc3)NC(=S)N2)cc(OC)c1OC (configuration not stated)
2

----------
# experiment: Selectivity index, ratio of IC50 for mouse B16 cells to IC50 for Trypanosoma lewisi
# Format: toxicity, cell-based
# assay-conditions: B16 cells versus Trypanosoma lewisi, read-out: Ratio IC50
metric: selectivity ratio
Kindly provide the number alone.

> print(dat)
                                   molecule  recorded.measurement
1  COc1ccc(C2C=C(c3cc(OC)c(OC)c(OC)c3)NC(=S)N2)cc1[N+](=O)[O-] (configuration not stated)                     2

Turning to the following molecule.
# selectivity ratio lookup, item COc1cc(C2=CC(c3ccc([N+](=O)[O-])cc3)NC(=S)N2)cc(OC)c1OC (configuration not stated)
2

----------
# experiment: Selectivity index, ratio of IC50 for mouse L1210 cells to IC50 for Leishmania tarentolae
# Type: toxicity, cell-based
# assay-conditions: L1210 cells versus Leishmania tarentolae, read-out: Ratio IC50
metric: selectivity ratio
Kindly provide the number alone.

> print(dat)
                                   compound  recorded.measurement
1  COc1ccc(C2C=C(c3cc(OC)c(OC)c(OC)c3)NC(=S)N2)cc1[N+](=O)[O-] (configuration not stated)                     8

Turning to the following compound.
# selectivity ratio lookup, item COc1cc(C2=CC(c3ccc([N+](=O)[O-])cc3)NC(=S)N2)cc(OC)c1OC (configuration not stated)
8

----------
Each entry below carries its recorded selectivity ratio.
# experiment: Selectivity index, ratio of IC50 for mouse B16 cells to IC50 for Leishmania tarentolae
# Format: toxicity, cell-based
# assay-conditions: B16 cells versus Leishmania tarentolae, read-out: Ratio IC50
Kindly provide the number alone.

> print(dat)
                                   compound  recorded.measurement
1  COc1cc(C2=CC(c3ccc([N+](=O)[O-])cc3)NC(=S)N2)cc(OC)c1OC (configuration not stated)                     8

Turning to the following compound.
# selectivity ratio lookup, item COc1ccc(C2C=C(c3cc(OC)c(OC)c(OC)c3)NC(=S)N2)cc1[N+](=O)[O-] (configuration not stated)
8
